- System: Haemophilus influenzae 76
- Format: cell-based
- MEASUREMENT CONTEXT: agar dilution
ASSAY READOUT: MIC (µg/mL)
Dear colleague, please return just the value in µg/mL, with no unit written.

Record excerpt, results attached:
{"columns": ["COMPOUND", "EXPERIMENTAL TARGET", "MIC [µg/mL]"],
 "data": [
  ["CN[C@H](CC(C)C)C(=O)N[C@H]1C(=O)N[C@@H](CC(N)=O)C(=O)N[C@H]2C(=O)N[C@H]3C(=O)N[C@H](C(=O)N[C@H](C(=O)O)c4cc(O)cc(O)c4-c4cc3ccc4O)[C@H](O)c3ccc(c(Cl)c3)Oc3cc2cc(c3O)Oc2ccc(cc2Cl)[C@H]1O", "Haemophilus influenzae 76", 64],
  ["CN[C@H](CC(C)C)C(=O)N[C@H]1C(=O)N[C@@H](CC(N)=O)C(=O)N[C@H]2C(=O)N[C@H]3C(=O)N[C@H](C(=O)N[C@H](C(=O)O)c4cc(O)cc(O)c4-c4cc3ccc4O)[C@H](O)c3ccc(c(Cl)c3)Oc3cc2cc(c3O[C@@H]2O[C@H](CO)[C@@H](O)[C@H](O)[C@H]2O)Oc2ccc(cc2Cl)[C@H]1O", "Haemophilus influenzae 76", 128]
]}

Req: Would you kindly share the measured MIC for CC(C)C[C@@H](N)C(=O)N[C@H]1C(=O)N[C@@H](CC(N)=O)C(=O)N[C@H]2C(=O)N[C@H]3C(=O)N[C@H](C(=O)N[C@H](C(=O)O)c4cc(O)cc(O)c4-c4cc3ccc4O)[C@H](O)c3ccc(c(Cl)c3)Oc3cc2cc(c3O)Oc2ccc(cc2Cl)[C@H]1O [Compound 9, Agluco-A51568A] ?
Resp: 128

Req: Requested read-out: MIC. Entry: CC(C)C[C@H](C(=O)N[C@H]1C(=O)N[C@@H](CC(N)=O)C(=O)N[C@H]2C(=O)N[C@H]3C(=O)N[C@H](C(=O)N[C@H](C(=O)[O-])c4cc(O)cc(O)c4-c4cc3ccc4O)[C@H](O)c3ccc(c(Cl)c3)Oc3cc2cc(c3O[C@@H]2O[C@H](CO)[C@@H](O)[C@H](O)[C@H]2O)Oc2ccc(cc2Cl)[C@H]1O)[N+](C)(C)C [Compound 5, M43C]
Resp: 64

Req: Value lookup for MIC; key = CC(C)C[C@H](C(=O)N[C@H]1C(=O)N[C@@H](CC(N)=O)C(=O)N[C@H]2C(=O)N[C@H]3C(=O)N[C@H](C(=O)N[C@H](C(=O)[O-])c4cc(O)cc(O)c4-c4cc3ccc4O)[C@H](O)c3ccc(c(Cl)c3)Oc3cc2cc(c3O)Oc2ccc(cc2Cl)[C@H]1O)[N+](C)(C)C [Compound 11, Agluco-M43A]
Resp: 32

----------
- System: Streptococcus pneumoniae Park 1
- Assay type: cell-based
- MEASUREMENT CONTEXT: agar dilution
Listing of recorded MIC by entry.
# unit: µg/mL | format: bare number

Would you please look over these solved cases?
{"columns": ["COMPOUND", "EXPERIMENTAL TARGET", "UNIT", "MIC"],
 "data": [
  ["CC(C)C[C@@H](N)C(=O)N[C@H]1C(=O)N[C@@H](CC(N)=O)C(=O)N[C@H]2C(=O)N[C@H]3C(=O)N[C@H](C(=O)N[C@H](C(=O)O)c4cc(O)cc(O)c4-c4cc3ccc4O)[C@H](O)c3ccc(c(Cl)c3)Oc3cc2cc(c3O[C@@H]2O[C@H](CO)[C@@H](O)[C@H](O)[C@H]2O)Oc2ccc(cc2Cl)[C@H]1O [Compound 12, Desvancosamine-A51568A]", "Streptococcus pneumoniae Park 1", "µg/mL", 1],
  ["CN[C@H](CC(C)C)C(=O)N[C@H]1C(=O)N[C@@H](CC(N)=O)C(=O)N[C@H]2C(=O)N[C@H]3C(=O)N[C@H](C(=O)N[C@H](C(=O)O)c4cc(O)cc(O)c4-c4cc3ccc4O)[C@H](O)c3ccc(c(Cl)c3)Oc3cc2cc(c3O[C@@H]2O[C@H](CO)[C@@H](O)[C@H](O)[C@H]2O)Oc2ccc(cc2Cl)[C@H]1O [Compound 13, Desvancosamine-Vancomycin]", "Streptococcus pneumoniae Park 1", "µg/mL", 4]
]}

Here is another compound to look at.
Req: # query: MIC of entry CC(C)C[C@H](C(=O)N[C@H]1C(=O)N[C@@H](CC(N)=O)C(=O)N[C@H]2C(=O)N[C@H]3C(=O)N[C@H](C(=O)N[C@H](C(=O)[O-])c4cc(O)cc(O)c4-c4cc3ccc4O)[C@H](O)c3ccc(c(Cl)c3)Oc3cc2cc(c3O)Oc2ccc(cc2Cl)[C@H]1O)[N+](C)(C)C [Compound 11, Agluco-M43A]
Resp: 1

Numbers sourced from patent US4552701A.
